Each entry below carries its recorded pIC50.
# System: hIL-6
# Protocol Summary: Inhibition of hIL-6 mRNA transcription in LPS-stimulated U937 cells
# Type: cell-based, Human
# Test Parameters: Homo sapiens, U-937, PMA-differentiated U937 cells, 1 h pretreatment, LPS 3 h, read-out: IL-6 activity
pIC50: −log10 of the molar value.

Worked examples, 2 compounds total:
1. COc1ncc(-c2c(C)noc2C)cc1NCCc1ccccc1 [Example 26]; 4.52 to 5.52
2. COc1ncc(-c2c(C)noc2C)cc1NCc1nc2ccccc2o1 [Example 46]; 5.52 to 6.52

Which value of pIC50 has been reported for COc1ncc(-c2c(C)noc2C)cc1OC(C)c1ccccc1 (centres unmarked) [Example 31] in the records?
5.52 to 6.52

Same lookup for COc1ncc(-c2c(C)noc2C)cc1NC(C)c1ccccc1 (centres unmarked) [Example 5] , please.
5.52 to 6.52

Then COc1ncc(-c2c(C)noc2C)cc1Nc1ccc(C#N)cc1 [Example 35] ?
5.52 to 6.52

----------
# Assay System: Brd4 bromodomain 1 (BRD4(1)) (Homo sapiens)
# Construct: made in house; host or cells: E. coli BL21(DE3)
# Protocol Summary: Inhibition of tetra-acetylated histone H4 binding to BET bromodomain (HTRF/FRET)
# Test Parameters: His-tagged bromodomain 200 nM, biotinylated tetra-acetylated histone H4 peptide, 2 h room temperature
Let's look at some molecules and their measured IC50.

1. CNc1ncc(-c2c(C)noc2C)cc1NCc1ccccc1 [Example 45]; ≤ 300 nM
2. COc1ncc(-c2c(C)noc2C)cc1NCc1ccc(C#N)cc1 [Example 11]; ≤ 300 nM
3. Cc1noc(C)c1-c1cnc(Oc2ccccc2)c(NCc2ccccn2)c1 [Example 51]; ≤ 300 nM
4. COc1ncc(-c2c(C)noc2C)cc1NCc1cccc2ncccc12 [Example 58]; ≤ 300 nM
5. COc1ncc(-c2c(C)noc2C)cc1NCc1ccc(F)cc1 [Example 6]; ≤ 300 nM

Which IC50 is reported for this molecule? COc1ncc(-c2c(C)noc2C)cc1NC(C)c1ccccc1 (centres unmarked) [Example 5]
300 to 3000 nM

Now consider COc1ncc(-c2c(C)noc2C)cc1NCc1nc2ccccc2s1 [Example 57] and answer again.
≤ 300 nM

Here is the next molecule: COc1ncc(-c2c(C)noc2C)cc1NCc1ccc(C#N)c(F)c1 [Example 29]
≤ 300 nM

And the next one, CNc1ncc(-c2c(C)noc2C)cc1NCc1ccsc1 [Example 68] ?
≤ 300 nM

Item: COc1ncc(-c2c(C)noc2C)cc1Nc1c(C)nn(C)c1C [Example 60]
≤ 300 nM

Same for COc1ncc(-c2c(C)noc2C)cc1NC(C)c1ccc(Cl)cc1 (centres unmarked) [Example 22]
300 to 3000 nM

Now consider COc1ncc(-c2c(C)noc2C)cc1Oc1cc(C#N)ccc1C [Example 65] and answer again.
300 to 3000 nM

Likewise for COc1ncc(-c2c(C)noc2C)cc1NCc1ccc(C(F)(F)F)cc1 [Example 16] ?
300 to 3000 nM

COc1ncc(-c2c(C)noc2C)cc1NCc1ccccc1 [Example 2] ?
≤ 300 nM

Now this one: COc1ncc(-c2c(C)noc2C)cc1NCc1ncccc1Cl [Example 49]
≤ 300 nM

COc1ncc(-c2c(C)noc2C)cc1OC(C)c1ccccc1 (centres unmarked) [Example 31] ?
≤ 300 nM

Next entry: COc1ncc(-c2c(C)noc2C)cc1Oc1ccccc1 [Example 4]
300 to 3000 nM

Also, COc1cccc(Nc2cc(-c3c(C)noc3C)cnc2OC)c1 [Example 13] please.
≤ 300 nM

Cool, now COc1ncc(-c2c(C)noc2C)cc1NCc1nc2ccccc2[nH]1 [Example 53]
300 to 3000 nM

Same read-out for COc1ncc(-c2c(C)noc2C)cc1NCc1ccc2ccccc2c1 [Example 44] ?
≤ 300 nM

----------
The following compounds are listed with their measured pIC50 values.
# System: hIL-6
# Protocol Summary: Inhibition of hIL-6 mRNA transcription in LPS-stimulated U937 cells
# Assay type: cell-based, Human
# Test Parameters: Homo sapiens, U-937, PMA-differentiated U937 cells, 1 h pretreatment, LPS 3 h, read-out: IL-6 activity
pIC50: −log10 of the molar value.

Consider the worked cases shown below.
1. COc1ncc(-c2c(C)noc2C)cc1OCc1ccccc1; 5.52 to 6.52
2. Cc1noc(C)c1-c1cnc(Oc2ccccc2)c(NCc2ccccn2)c1; 5.52 to 6.52
3. COc1ncc(-c2c(C)noc2C)cc1NCc1ccc(Cl)cc1; 4.52 to 5.52

Enter reported pIC50 observed with hIL-6 for COc1ncc(-c2c(C)noc2C)cc1NCc1ccc2ccccc2c1
4.52 to 5.52

Quick one: CNc1ncc(-c2c(C)noc2C)cc1Nc1cc(C#N)ccc1C
5.52 to 6.52

Also, COc1ncc(-c2c(C)noc2C)cc1NCc1ccc(C#N)cc1F please.
5.52 to 6.52

Then what about the compound COc1ncc(-c2c(C)noc2C)cc1Nc1cccc(F)c1 ?
5.52 to 6.52

Next entry: CNc1ncc(-c2c(C)noc2C)cc1NCc1nccs1
5.52 to 6.52

// query: COc1ncc(-c2c(C)noc2C)cc1OCc1ccc(F)cc1
5.52 to 6.52

What would you report for COc1ncc(-c2c(C)noc2C)cc1NCc1ncccn1 ?
5.52 to 6.52

Now give it for COc1ncc(-c2c(C)noc2C)cc1Nc1cc(C#N)ccc1C too.
4.52 to 5.52
